Each recorded value in this set is attributed to ChEMBL document CHEMBL4732153.

Overview of reported log10 IC50 across a group of compounds:
test system: MCF7; experiment: Antiproliferative activity against human MCF7 cells assessed as reduction in cell viability measured after 48 hrs by sulforhodamine B assay; assay type: functional, cell-based; conditions: MCF7, 48 h
# values: log10(IC50), units nM

Check out these entries, answers already filled in.
COc1cc(OC)cc(OS(=O)(=O)c2ccc(N3CCCC3=O)cc2)c1
1.32
O=C1CCCN1c1ccc(S(=O)(=O)Nc2cccc(Br)c2)cc1
2.92
O=C1CCCN1c1ccc(S(=O)(=O)Nc2ccc(-c3ccccc3)cc2)cc1
3.85
CC(C)c1ccccc1NS(=O)(=O)c1ccc(N2CCCC2=O)cc1
4.20
COc1ccc(/C=C\c2cc(OC)c(OC)c(OC)c2)cc1O
0.28

For this compound ( O=C1CCCN1c1ccc(S(=O)(=O)Nc2cc(Br)cc(Br)c2)cc1 ), measured log10 IC50 is 2.72

For this compound ( O=C1CCCN1c1ccc(S(=O)(=O)Oc2cccc(F)c2)cc1 ), measured log10 IC50 is 2.57

For this compound ( COc1ccccc1NS(=O)(=O)c1ccc(N2CCCC2=O)cc1 ), measured log10 IC50 is 3.26

For this compound ( COc1cc(NS(=O)(=O)c2ccc(N3CCCC3=O)cc2)cc(OC)c1OC ), measured log10 IC50 is 1.94

For this compound ( O=C1CCCN1c1ccc(S(=O)(=O)Oc2ccc(-c3ccccc3)cc2)cc1 ), measured log10 IC50 is 3.23

For this compound ( COc1ccccc1OS(=O)(=O)c1ccc(N2CCCC2=O)cc1 ), measured log10 IC50 is 2.95

For this compound ( O=C1CCCN1c1ccc(S(=O)(=O)Nc2cccc(F)c2)cc1 ), measured log10 IC50 is 2.83

For this compound ( COc1cc(NS(=O)(=O)c2ccc(N3CCCC3=O)cc2)cc(OC)c1 ), measured log10 IC50 is 2.84

For this compound ( O=C1CCCN1c1ccc(S(=O)(=O)Oc2cc(Br)cc(Br)c2)cc1 ), measured log10 IC50 is 1.04

----------
assay: Toxicity in chick embryo assessed as death at 10 ug, iv incubated for 7 days relative to control; assay type: organism-based; settings: in vivo, at 10 µg, time 7 day, read-out: Activity
Overview of reported mortality at 168 h across a group of compounds:
Numeric answer only, unit % assumed.

O=C1CCCN1c1ccc(S(=O)(=O)Oc2cc(Br)cc(Br)c2)cc1
18

# next compound below
For this compound ( O=C1CCCN1c1ccc(S(=O)(=O)Nc2cc(Br)cc(Br)c2)cc1 ), measured mortality at 168 h is 25

----------
tested on: M21; assay: Cell cycle arrest in human M21 cells assessed as accumulation at G0/G1 phase at 2 to 5 times IC50 measured after 24 hrs by DAPI staining based flow cytometry (reference value: 65.5%); type: functional
If the reported Activity equals or exceeds 10%, assign Yes. If not, assign No.

O=C1CCCN1c1ccc(S(=O)(=O)Oc2cccc(I)c2)cc1
No
O=C1CCCN1c1ccc(S(=O)(=O)Oc2cccc(Br)c2)cc1
Yes
O=C1CCCN1c1ccc(S(=O)(=O)Nc2ccccc2-c2ccccc2)cc1
Yes

Query string: Entry O=C1CCCN1c1ccc(S(=O)(=O)Nc2cc(Br)cc(Br)c2)cc1 : is its Activity no less than 10%?
Result string: No

Query string: Entry COc1cc(NS(=O)(=O)c2ccc(N3CCCC3=O)cc2)cc(OC)c1OC : is its Activity no less than 10%?
Result string: No

Query string: Entry O=C1CCCN1c1ccc(S(=O)(=O)Oc2cc(Br)cc(Br)c2)cc1 : is its Activity no less than 10%?
Result string: No

Query string: Entry O=C1CCCN1c1ccc(S(=O)(=O)Nc2cccc(I)c2)cc1 : is its Activity no less than 10%?
Result string: Yes

Query string: Entry O=C1CCCN1c1ccc(S(=O)(=O)Nc2cccc(Cl)c2)cc1 : is its Activity no less than 10%?
Result string: Yes
